# assay.info: chemical genetic growth profiling, strain panel (AID 1159580);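 further: tested at 20 µM; growth read once vehicle control cultures reached saturation at 30 °C; lower values mean less growth of the strain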
# condition.info: S. cerevisiae deletion strains, growth OD, locus YCL011C, strain gbp2
About 2,000 (36%) of roughly 5,500 compounds were called active. About 18% were inconclusive and are not listed. No stated cut-off is given here; in the data, active means normalized growth mostly below about 0.91 (no sharp cut-off); inconclusive means no clear call, values can overlap the other calls; inactive means mostly above about 0.92. This is one part of the list.
Outcome codes: active, inactive

compound	category.label
C/C=C(/C)C(=O)O[C@@H]1[C@H](OC(C)=O)[C@@]2(CO)C(CC1(C)C)C1=CCC3[C@@]4(C)CC[C@H](O[C@@H]5O[C@H](C(=O)O)[C@@H](O[C@@H]6O[C@H](CO)[C@@H](O)[C@H](O)[C@H]6O)[C@H](O)[C@H]5O[C@@H]5O[C@H](CO)[C@@H](O)[C@H](O)[C@H]5O)[C@](C)(CO)C4CC[C@@]3(C)[C@]1(C)C[C@H]2O (stereo partly specified)	inactive
COc1cccc2c1C(=O)c1c(O)c3c(c(O)c1C2=O)C[C@@](O)(C(C)=O)C[C@@H]3O[C@H]1C[C@H](N)[C@H](O)[C@H](C)O1	inactive
C[C@@H]1CC[C@]2(C(=O)O)CC[C@]3(C)C(=CCC4[C@@]5(C)CC[C@H](O)C(C)(C)C5CC[C@]43C)C2[C@H]1C (stereo partly specified)	inactive
COc1cccc2c1C(=O)c1c(O)c3c(c(O)c1C2=O)C[C@@](O)(C(=O)CO)C[C@@H]3OC1C[C@H](N)[C@H](O)[C@H](C)O1 (stereo partly specified)	active
CC1(C)CCC2(C(=O)O)CCC3(C)C(=CCC4C5(C)CCC(O)C(C)(C)C5C(O)CC43C)C2C1 (stereo unspecified)	inactive
CC(C)CCCC1(C)C=Cc2c(O)c3c(c(CCC(C)C)c2O1)OC12C(CC4CC1C(C)(C)OC2(CCC(C)C(=O)O)C4O)C3=O (stereo unspecified)	inactive
